Reported SIF stability, Residual peptide Average values are given for each entry in this list.
tested on: porcine pancreatin; experiment: Peptide stability in simulated intestinal fluid (SIF); type: in vitro ADME; details: after 8 h vs 0 h (TIC); average of R1-R3
// no unit, no text: just the number

Recorded SIF stability, Residual peptide Average, per entry:
>>> datavalue("O=C1CC2CCN(CC2)C(=O)[C@H](Cc2ccccc2)NC(=O)[C@@H](NC(=O)c2ccc(Cl)s2)CSCc2cccc(n2)CSCCN1")
87.61
>>> datavalue("O=C(N[C@H]1CSCc2cccc(n2)CSCCNC(=O)[C@H](Cc2c[nH]cn2)NC(=O)C2(CCCC2)NC1=O)c1ccc(Cl)s1")
92.07
>>> datavalue("O=C1NCCSCc2cccc(n2)CSC[C@H](NC(=O)c2ccc(Cl)s2)C(=O)N[C@@H](CO)C(=O)NCc2cccc1c2")
91.64

Now consider a different compound.
## Input Any idea what its SIF stability, Residual peptide Average is? The compound is O=C1CCSCc2cccc(n2)CSCCNC(=O)[C@H](CO)NC(=O)[C@@H](NC(=O)c2ccc(Cl)s2)CN1
## Output 91.77

----------
molecular target: UniProtKB P00734; experiment: Sub-library screen for active and permeable cyclic peptides (PAMPA plus thrombin inhibition); type: biochemical; conditions: donor sample diluted to theoretical equilibrium (1 μM in assay); crude; slopes normalized to DMSO
If the reported Residual thrombin activity: Equilibrated sample equals or exceeds 90, assign true. If not, assign false.

>>> grouplabel("Cc1cccc(C[C@@H]2NC(=O)[C@@H](NC(=O)c3ccc(Cl)s3)CCCSCCS(=O)(=O)CCSCCNC(=O)C[C@H]3CCCN3C2=O)c1")
"false"
>>> grouplabel("Cc1cccc(C[C@@H]2NC(=O)[C@@H](NC(=O)c3ccc(Cl)s3)CSCc3ccccc3CSCCNC(=O)C[C@H]3CCCN3C2=O)c1")
"false"

## Input Record O=C1CSCCC[C@H](NC(=O)c2ccc(Cl)s2)C(=O)N[C@H](Cc2ccccc2)C(=O)N2CCC[C@@H]2CC(=O)NCCSC1 ; criterion: Residual thrombin activity: Equilibrated sample no lower than 90. Met?
## Output true

## Input Given the entry CN1C(=O)[C@@H](NC(=O)c2ccc(Cl)s2)CCCSCc2ccc(cc2)CSCCNC(=O)C[C@H]2CCCN2C(=O)[C@@H]1Cc1ccccc1 , answer whether its Residual thrombin activity: Equilibrated sample meets or surpasses 90.
## Output true

## Input # bool: Residual thrombin activity: Equilibrated sample of COc1ccc(C[C@@H]2NC(=O)[C@@H](NC(=O)c3ccc(Cl)s3)CCSC/C=C/CSCCNC(=O)C[C@H]3CCCN3C2=O)cc1 >= 90
## Output true

## Input Quick check, Residual thrombin activity: Equilibrated sample >= 90? N#Cc1ccc(C[C@@H]2NC(=O)[C@@H](NC(=O)c3ccc(Cl)s3)CCCSCC(=O)CSCCNC(=O)C[C@H]3CCCN3C2=O)cc1
## Output true

## Input Does the molecule O=C1C[C@H]2CCCN2C(=O)[C@H](Cc2ccc(Cl)cc2)NC(=O)[C@@H](NC(=O)c2ccc(Cl)s2)CCCSCCS(=O)(=O)CCSCCN1 have recorded Residual thrombin activity: Equilibrated sample that is 90 or more?
## Output true

## Input In plain terms: is recorded Residual thrombin activity: Equilibrated sample at least 90 for N#Cc1ccc(C[C@@H]2NC(=O)[C@@H](NC(=O)c3ccc(Cl)s3)CCCSCCS(=O)(=O)CCSCCNC(=O)C[C@H]3CCCN3C2=O)cc1 ?
## Output true

Value source: paper PMC11062899
